Assay: E. coli DRC41 culture turbidity changes, primary screen, E. coli filamentation inducer project, strain DRC41, OD650, 48 h (AID 1152);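 further: E. coli MC1000 strain DRC41 lacking acrAB efflux pump and sulA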
Conditions: E. coli DRC41 (acrAB sulA), higher = more signal, called active from +8 up or from −8 down
Attribute: z-score
Give the figure only, with no unit attached.

[[record]]
compound = "CN1C(=O)C2C=CC(C(O)c3ccc(I)cc3)N(N3CCCCC3)C2C1=O (stereo not given)"
numeric_result = -2.04

[[record]]
compound = "CC(CO)N1C(=O)[C@@H]2C3C(=O)OCCC/C=C\\[C@H]3OC23C=CCN(c2ccc4ccccc4c2)C(=O)[C@@H]13 (stereo not given in full)"
numeric_result = 0.453

[[record]]
compound = "COc1cc2c(cc1OC)CN(C(=O)[C@H]1[C@@H]3C(=O)O[C@@H](c4ccccc4)[C@@H](c4ccccc4)N3[C@@H](c3ccc(O)cc3)[C@]13C(=O)Nc1ccc(C#CC4=CCCCC4)cc13)CC2"
numeric_result = 1.21

[[record]]
compound = "CN1C(=O)C2C=CC(C(O)c3cc(C(F)(F)F)cc(C(F)(F)F)c3)N(N3CCCCC3)C2C1=O (stereo not given)"
numeric_result = -0.78

[[record]]
compound = "CC(=O)n1cc(C(O)C2C=CC3C(=O)N(C)C(=O)C3N2Nc2ccccc2)c2ccccc21 (stereo not given)"
numeric_result = -1.39

[[record]]
compound = "CC1(C)[C@@H]2CC(C(O)C3C=CC4C(=O)N(c5ccccc5)C(=O)C4N3Nc3ccccc3)=C[C@H]1C2 (stereo not given in full)"
numeric_result = -1.16

[[record]]
compound = "CC(C)(C)OC(=O)CC[C@@]1(C(N)=O)N=C(c2ccc(OCCCO)cc2)O[C@@H]1c1ccccc1"
numeric_result = -0.795

[[record]]
compound = "CC(C)C(=C=CC[C@@H](O)c1ccccc1OCCO)CCO"
numeric_result = 0.351

[[record]]
compound = "CN(C)C(=O)[C@]1(Cc2ccccc2N=[N+]=[N-])N=C(c2ccc(OCCCO)cc2)O[C@@H]1c1ccccc1"
numeric_result = 0.327

[[record]]
compound = "[N-]=[N+]=NCc1ccccc1[C@@H]1OC(c2ccc(OCCCO)cc2)=N[C@]1(CCS(=O)(=O)c1ccccc1)C(=O)NCc1ccccc1"
numeric_result = -0.665


Query CN1C(=O)C2C=CC(C(O)C3CC=CCC3)N(NC(=O)OC(C)(C)C)C2C1=O (stereo not given) yields z-score of -1.49

The reported value for CCOC(=O)[C@H]1C/C=C/C[C@H](C(=O)OCC)C(=O)O[C@H]2[C@@H](OC)O[C@H](CO)[C@@H](OC(=O)Nc3cccc(F)c3)[C@@H]2OC1=O in terms of z-score is 0.0021

# z-score (compound: CCCC=C(CCC)[C@@H](NS(=O)(=O)c1cccs1)c1ccc(C(=O)OC)cc1 ) is -1.35

Quick note, z-score for CC(C)(C)C(=O)N[C@@H](c1ccc(Cl)cc1)[C@]1(C)C[C@H]1C1CCCCC1 landed at -0.913

Form: compound = C=CCOC(=O)[C@H]1[C@@H]2C(=O)O[C@@H](c3ccccc3)[C@@H](c3ccccc3)N2[C@@H](c2ccc(OCCOC(=O)[C@H]3C[C@H]4C(=O)N[C@@H](CC(C)C)C(=O)N4[C@H]3c3ccc(O)cc3)cc2)[C@]12C(=O)Nc1ccc(I)cc12 ; z-score = -1.1

Briefly, z-score measured for O=C1OCCC/C=C\[C@H]2OC34C=CCN(CCN5CCOCC5)C(=O)[C@H]3N(CCCO)C(=O)[C@@H]4C12 (stereo not given in full) : -0.478

Input CCOC(=O)C[C@H]1[C@H](OC(=O)Cc2ccc3c(c2)OCO3)[C@@H](NC(=O)c2ccc(-c3ccccc3)cc2)c2cc(OCCCO)ccc2N1C(=O)c1ccc2ccccc2n1 . Output z-score: 1.55
